Test system: MKL-2
Method Summary: qHTS assay to identify novel small-molecules to repurpose for Merkel cell carcinoma treatment (AID 1296009); note: nearly all actives have a fitted effect of over 60% in size
Experimental Conditions: MCC and control cell lines, CellTiter-Glo viability, 72 h; series mostly up to 46 µM
Results filed as inconclusive are left out. Activity calls are given as the source filed them. Calls come from the whole dose curve; as a rule, active = well fitted inhibition curve with a large enough effect; inconclusive = small, poorly fitted or top-dose-only effect; inactive = flat fitted curve, though single readings scatter.
# output must be one of Yes = active, No = inactive

Example entries and their recorded answers appear below.
Request: Tell me the assay call for CCN(CC)CCNc1ccc(CO)c2sc3ccccc3c(=O)c12 please.
Result: Yes

Request: Thanks! And Cc1cccc(C)c1NC(=O)CN1CCCCCC1 ?
Result: No

Request: Thanks! And CCOc1ccccc1OCCN[C@H](C)Cc1ccc(OC)c(S(N)(=O)=O)c1 ?
Result: No

Attention now turns to another entry.
Request: Tell me the assay call for COc1cc(C(=O)N2CCCCCCC2)cc(OC)c1OC please.
Result: No

* * *

System: CP291
Method Summary: qHTS profiling for inhibitors of Plasmodium falciparum proliferation (AID 504749);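 note: 0% = DMSO vehicle and full inhibition = artemisinin control; nearly all actives have a fitted effect of over 60% in size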
Experimental Conditions: P. falciparum in erythrocytes, SYBR Green DNA, 72 h; series mostly up to 28.7 µM
Inconclusive results are not listed. Calls of active or inactive are those of the source. The call rests on the fitted dose curve; in most records, active means well fitted inhibition curve with a large enough effect; inconclusive means small, poorly fitted or top-dose-only effect; inactive means flat fitted curve, though single readings scatter.
# output must be one of 1.0 = active, 0.0 = inactive

Example entries and their recorded answers appear below.
Request: Tell me the assay call for N=C(N)N1CCc2ccccc2C1 please.
Result: 0.0

Request: Thanks! And COc1ccc(-c2cc(C(F)F)nn2-c2ccc(S(N)(=O)=O)cc2)cc1F ?
Result: 0.0

Request: Thanks! And COc1cc(C(=O)NCc2ccc(OCCN(C)C)cc2)cc(OC)c1OC ?
Result: 0.0

Request: Thanks! And CN(C)C(=O)Nc1ccc(Cl)c(Cl)c1 ?
Result: 0.0

Request: Thanks! And CC(=O)NO ?
Result: 0.0

More entries:
Request: Tell me the assay call for CCCN(CCC)S(=O)(=O)c1ccc(C(=O)O)cc1 please.
Result: 0.0

Request: Thanks! And O=C(O)CCNC(=O)c1ccccc1 ?
Result: 0.0

Request: Thanks! And O=C(NC1CCN(CCc2c[nH]c3ccccc23)CC1)c1ccccc1 ?
Result: 0.0

* * *

Method Summary: Primary qHTS for inhibitors of nuclear receptor binding SET domain protein 2 (NSD2) in an RCH-ACV wild type WT cells (2C) (AID 1645877); note: nearly all actives have a fitted effect of over 70% in size
Experimental Conditions: RCH-ACV (leukaemia line) NSD2 WT (2C) viability, CellTiter-Glo, 72 h; series mostly up to 44.9 µM
Records with an inconclusive call do not appear. Active and inactive are the calls of the source. Calls come from the whole dose curve; as a rule, active = well fitted inhibition curve with a large enough effect; inconclusive = small, poorly fitted or top-dose-only effect; inactive = no such curve, though single readings can be large or run the other way.
Assay Endpoint: outcome

Request: What does the record list as outcome for COc1ccc2c(c1)c1c3n2CCN(C)C3=NCC1 ?
Result: inactive

Request: Thanks! And CC(C)(C)NC[C@H](O)COc1cccc2c1CCCC2=O ?
Result: inactive

Request: Thanks! And NC(=O)n1c(O)c(C(=O)c2cccs2)c2cc(Cl)ccc21 ?
Result: inactive

Request: Thanks! And Cc1cc(C)cc(OCC2CNC(=O)O2)c1 (centres undefined) ?
Result: inactive

* * *

Method Summary: qHTS of pediatric cancer cell lines to identify multiple opportunities for drug repurposing: Primary screen for NB-EBc1 cells (AID 1347095);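 note: plate controls were DMSO neutral control for no effect and bortezomib for full effect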
Experimental Conditions: NB-EBc1 neuroblastoma viability, CellTiter-Glo luminescence, 48 h; series mostly up to 46 µM
Results filed as inconclusive are left out. Active and inactive are the calls of the source. The call rests on the fitted dose curve; in most records, active means well fitted cell-killing curve with a large enough effect; inconclusive means small, poorly fitted or top-dose-only effect; inactive means no such curve, though single readings can be large or run the other way.
# output must be one of active, inactive

Example entries and their recorded answers appear below.
Request: Tell me the assay call for NCCNC(=O)c1ccc(Cl)cn1 please.
Result: inactive

Request: Thanks! And Cn1c(=O)c2[nH]c(Br)nc2n(C)c1=O ?
Result: inactive

Request: Thanks! And Cc1ncc(CO)c(C=O)c1O ?
Result: inactive

Request: Thanks! And CN1CCN(C2=Nc3cc(F)ccc3Cc3ccccc32)CC1 ?
Result: inactive

Attention now turns to another entry.
Request: Tell me the assay call for CCOC(=O)Nc1ccc2c(c1)N(C(=O)CCN1CCOCC1)c1ccccc1S2 please.
Result: inactive

These data points were gathered from PubChem BioAssay (NCATS).
